Where these numbers come from: PubChem BioAssay (NCI)

Test system: MOLT-4 leukemia
Experiment: NCI-60 one-dose screen, 48 h (100 = growth as untreated, 0 = no growth, -100 = all killed)
Settings: 10 µM unless noted
About 83,000 compounds went through this panel and 20% of them were active in at least one assay; those are over-represented in the sample as a whole.
Classification field: enter Condition met for growth values not below 40%, Condition not met for values below it.

COc1ccc(CCN2CCCn3c2nc2ccccc2c3=O)cc1; Condition not met
Oc1ccccc1N=Cc1c(O)ccc2ccccc12; Condition not met
COc1cc(/C=N/N(C)C)ccc1O; Condition met
CC(=O)CC(C)(C)c1ccc(Cl)cc1; Condition met
CC(C)(C)c1nn(-c2ccccc2)c2c1CC1(CN2Cc2ccc3c(c2)OCO3)C(=O)c2ccccc2C1=O; Condition met
O=C1C=CC(Nc2ccccc2[N+](=O)[O-])C1Nc1ccccc1[N+](=O)[O-] (stereo unspecified); Condition not met
Cc1cc(Nc2nc(N3CCNCC3)nc3ccccc23)n[nH]1; Condition met
COc1c(Cl)cc(Cl)cc1Cl; Condition met

Determine whether this molecule has growth no lower than 40%: `COc1ccc(C(=O)COc2ccc(/C=C3\Oc4ccc(Cl)cc4C3=O)cc2)cc1`
Condition not met

Check the entry `CN1CCN(Cc2ccc(NC(=O)c3[nH]ncc3Nc3ncnc4c3CCC4)cc2)CC1` : does growth equal or exceed 40%?
Condition not met

Decide: growth of `C[C@]12C[C@@H](c3ccoc3)OC(=O)[C@@H]1CC[C@]1(C)[C@@H]2CC[C@@H](O)[C@]1(C)O` >= 40%?
Condition met
